- experimental_system: SARS-CoV-2 NSP3 macrodomain (Mac1) (Severe acute respiratory syndrome coronavirus 2)
- Assay type: binding
- measurement_setup: ligand conformations modeled in the crystal structure
recorded_endpoint: Total number of conformations
One number for each entry.

Sample records with Total number of conformations:
molecule	experimental_system	Total number of conformations
OCC(Cc1ccccc1)Nc1ncnc2[nH]ccc12 (centres unmarked)	SARS-CoV-2 NSP3 macrodomain (Mac1) (Severe acute respiratory syndrome coronavirus 2)	2
OCC(CC1CCCC1)Nc1ncnc2[nH]ccc12 (centres unmarked)	SARS-CoV-2 NSP3 macrodomain (Mac1) (Severe acute respiratory syndrome coronavirus 2)	1
OCC1C2CCC(C2)N1c1ncnc2[nH]ccc12 (centres unmarked)	SARS-CoV-2 NSP3 macrodomain (Mac1) (Severe acute respiratory syndrome coronavirus 2)	1
OCC(Nc1ncnc2[nH]ccc12)C1CCOC1 (centres unmarked)	SARS-CoV-2 NSP3 macrodomain (Mac1) (Severe acute respiratory syndrome coronavirus 2)	1

Would you mind giving Total number of conformations for every molecule in the list below?
1. OC[C@@H]1C[C@H](F)CN1c1ncnc2[nH]ccc12
2. O[C@H]1COC[C@@H]1Nc1ncnc2[nH]ccc12
3. CCC(Nc1ncnc2[nH]ccc12)C(C)(C)O (centres unmarked)
4. OCC(CC1CCCO1)Nc1ncnc2[nH]ccc12 (centres unmarked)
5. C[C@@H](O)[C@H](CO)Nc1ncnc2[nH]ccc12.O=C(O)C(F)(F)F
6. CN1CCN(c2ncnc3[nH]ccc23)C(CO)C1 (centres unmarked)
7. OCC1CC2(CCCCC2)CN1c1ncnc2[nH]ccc12 (centres unmarked)

[1, 1, 1, 1, 1, 2, 1]

* * *

- experimental_system: SARS-CoV-2 NSP3 macrodomain (Mac1) (Severe acute respiratory syndrome coronavirus 2, UniProt P0DTD1)
- protocol_details: biochemical
- Assay type: binding
- measurement_setup: SARS CoV-2 macrodomain HTRF assay, dose-response
Kindly state Hill slope for each of the entries shown.
One number for each entry.

compound	recorded_endpoint	test_result
CCC(C)(CO)Nc1ncnc2[nH]ccc12 (centres unmarked) [AVI-3697]	Hill slope	1.2
Cc1c[nH]c2ncnc(NCC3(O)CCC(C)CC3)c12 (centres unmarked) [AVI-4331]	Hill slope	1.2
OC1(CNc2ncnc3[nH]ccc23)CCCSC1 (centres unmarked) [AVI-4322]	Hill slope	1.3
OCC1CC=CCN1c1ncnc2[nH]ccc12 (centres unmarked) [AVI-6002]	Hill slope	1.3
OC1(CNc2ncnc3[nH]ccc23)CCSCC1 [AVI-4319]	Hill slope	1.2
OCCC(CO)Nc1ncnc2[nH]ccc12 (centres unmarked) [AVI-3734]	Hill slope	1.2
OC[C@@H]1C[C@H](O)CN1c1ncnc2[nH]ccc12 [AVI-610]	Hill slope	1.2
CC(C)(O)C1N(c2ncnc3[nH]ccc23)CCC1(C)C (centres unmarked) [AVI-4126]	Hill slope	1.3

Would you mind giving Hill slope for every compound in the list below?
1. CCC(CC)(CO)Nc1ncnc2[nH]ccc12 [AVI-3695]
2. OCC1CC2(CCCC2)CN1c1ncnc2[nH]ccc12 (centres unmarked) [AVI-3708]
3. OC1CCC(O)(CNc2ncnc3[nH]ccc23)CC1 (centres unmarked) [AVI-6220]

1. 1.3
2. 1.1
3. 1.3

* * *

- experimental_system: SARS-CoV-2 NSP3 macrodomain (Mac1) (Severe acute respiratory syndrome coronavirus 2)
- Type: binding
- measurement_setup: crystallographic refinement
recorded_endpoint: Refined ligand occupancy (%)
# output: number + unit

Sample records with Refined ligand occupancy (%):
molecule	recorded_endpoint	test_result
OC1(CNc2ncnc3[nH]ccc23)CCSCC1 [AVI-4319]	Refined ligand occupancy (%)	32%
OC1CCC(O)(CNc2ncnc3[nH]ccc23)CC1 (stereo not drawn) [AVI-6220]	Refined ligand occupancy (%)	14%
OC1(CNc2ncnc3[nH]ccc23)CCCOC1 (stereo not drawn) [AVI-4311]	Refined ligand occupancy (%)	50%
Cc1c[nH]c2ncnc(NCC3(O)CCC(C)CC3)c12 (stereo not drawn) [AVI-4331]	Refined ligand occupancy (%)	54%
C[C@H]1CC[C@H](CO)N(c2ncnc3[nH]ccc23)C1 [AVI-4063]	Refined ligand occupancy (%)	50%

Now take the following molecule into account.
Find Refined ligand occupancy (%) for OC1(CNc2ncnc3[nH]ccc23)COC2CC1C2 (stereo not drawn) [AVI-4313] on SARS-CoV-2 NSP3 macrodomain (Mac1) (Severe acute respiratory syndrome coronavirus 2) and write it down. 38%

* * *

- experimental_system: SARS-CoV-2 NSP3 macrodomain (Mac1) (Severe acute respiratory syndrome coronavirus 2, UniProt P0DTD1)
- Type: binding
- measurement_setup: refined crystallographic occupancy
Refined ligand occupancy (%) less than 30% is yes (1); Refined ligand occupancy (%) greater than or equal to 30% is no (0).

Example entries begin here.
molecule	category_label
OCC(Nc1ncnc2[nH]ccc12)c1ccccc1 (centres unmarked) [AVI-3715]	no (0)
CC(c1ccccc1)C(CO)Nc1ncnc2[nH]ccc12 (centres unmarked) [AVI-3669]	yes (1)
OCC(CC(O)c1ccccc1)Nc1ncnc2[nH]ccc12 (centres unmarked) [AVI-3642]	no (0)

Please indicate whether the reported Refined ligand occupancy (%) of CC1CC(C(=O)O)CCN1C(=O)c1ccc2c(c1)OCC(=O)N2 (centres unmarked) [AVI-303] is strictly below 30%. yes (1)

* * *

- experimental_system: SARS-CoV-2 NSP3 macrodomain (Mac1) (Severe acute respiratory syndrome coronavirus 2, UniProt P0DTD1)
- Format: binding
- measurement_setup: refined crystallographic occupancy
Kindly state Refined ligand occupancy (%) for each of the entries shown.
Give bare numbers, in %.

Sample records with Refined ligand occupancy (%):
molecule	Refined ligand occupancy (%)
OCC(CC1CC1)Nc1ncnc2[nH]ccc12 (stereo not drawn) [AVI-3662]	28
OCC(O)C1CCCN1c1ncnc2[nH]ccc12 (stereo not drawn) [AVI-3701]	36
OCC1CC2(CCOCC2)CN1c1ncnc2[nH]ccc12 (stereo not drawn) [AVI-3707]	42
Cc1cc2c(=O)n(CCN3C(=O)c4ccccc4S3(=O)=O)nnc2s1 [AVI-341]	50
OCC(CC1CCC1)Nc1ncnc2[nH]ccc12 (stereo not drawn) [AVI-3641]	36
CC(C)(C)CC(CO)Nc1ncnc2[nH]ccc12 (stereo not drawn) [AVI-3648]	26
CC(C)(C)[C@@H]1CCN(c2ncnc3[nH]ccc23)[C@H](CO)C1 [AVI-3722]	22
O[C@H]1CC[C@@H]2CCN(c3ncnc4[nH]ccc34)[C@@H]21 [AVI-3664]	32

Would you mind giving Refined ligand occupancy (%) for every molecule in the list below?
1. CC1(C)CCC(CO)N(c2ncnc3[nH]ccc23)C1 (stereo not drawn) [AVI-3726]
2. OCC(CN1CCCCC1)Nc1ncnc2[nH]ccc12 (stereo not drawn) [AVI-3677]
3. OCC(Cc1cncs1)Nc1ncnc2[nH]ccc12 (stereo not drawn) [AVI-3703]
4. O=C(O)C(F)(F)F.OC1([C@H]2CCCN2c2ncnc3[nH]ccc23)Cc2ccccc2C1 [AVI-3731]
5. O=C(O)C1CCCN1S(=O)(=O)c1cccc2nsnc12 (stereo not drawn) [AVI-2]
6. CC(CNC(=O)c1ccc2c(c1)CCC(=O)N2)C(=O)O (stereo not drawn) [AVI-328]

34
42
30
40
50
22

* * *

Kindly state 1-BDC for each of the entries shown.
- experimental_system: SARS-CoV-2 NSP3 macrodomain (Mac1) (Severe acute respiratory syndrome coronavirus 2)
- Format: binding
- measurement_setup: PanDDA background density correction factor
Give bare numbers.

Sample records with 1-BDC:
compound	1-BDC
OCC(Cc1cncs1)Nc1ncnc2[nH]ccc12 (centres unmarked)	0.15
Cn1cc(CC(CO)Nc2ncnc3[nH]ccc23)cn1 (centres unmarked)	0.15
CC(c1ccccc1)C(CO)Nc1ncnc2[nH]ccc12 (centres unmarked)	0.14
OCC(Nc1ncnc2[nH]ccc12)C1CCc2ccccc21 (centres unmarked)	0.22
OC[C@@H]1C[C@H](F)CN1c1ncnc2[nH]ccc12	0.17

Would you mind giving 1-BDC for every compound in the list below?
1. OCC(Cc1cccs1)Nc1ncnc2[nH]ccc12 (centres unmarked)
2. OCC(CC1CC1)Nc1ncnc2[nH]ccc12 (centres unmarked)
3. CCC(CC)(CO)Nc1ncnc2[nH]ccc12
4. CCC1(O)CCN(c2ncnc3[nH]ccc23)C1 (centres unmarked)
5. O=C(O)C(F)(F)F.OCC1(Nc2ncnc3[nH]ccc23)CCCC1
6. CC1CCN(c2ncnc3[nH]ccc23)C1CO (centres unmarked)

1: 0.21; 2: 0.14; 3: 0.12; 4: 0.17; 5: 0.22; 6: 0.21

* * *

Kindly state Recover Rate (%) for each of the entries shown.
- Tested on: Caco-2 cells
- measurement_setup: Caco-2 permeability assay, compound concentration 5
Numbers only, in %.

Sample records with Recover Rate (%):
compound	unit_symbol	Recover Rate (%)
C[C@H]1CCCN(c2ncnc3[nH]ccc23)[C@H]1CO	%	104
O=C1CCCN1Nc1ncnc2[nH]c3cc(F)ccc3c12 [AVI-219, reference compound]	%	98
CC(C)(O)[C@H]1CCCN1c1ncnc2[nH]ccc12	%	93

Now take the following compound into account.
// Input: O=C(Nc1ccc(C(=O)N[C@H]2c3cccc(O)c3C[C@H]2C(=O)O)cc1)NC1CC1 [AVI-92, reference compound] . Output its Recover Rate (%) only. 91

These data points were gathered from paper PMC12118597.
